Kindly supply the reported log10(IC50) values for the records listed here.
- measured on: HLA-A*02:02
- method summary: IEDB peptide-MHC binding, purified MHC/competitive/radioactivity; bounds were set here for any values at or beyond the usual limits of such assays
- details: source organism: Vaccinia virus WR
On a log10 scale: recorded IC50, unit nM.

LLNVQTLISL    1.38

Provide reported log10(IC50) for each item, in the same order as listed.
1. SLCPTKKLV
2. GLCNYGGIL
3. IIGEPIIVA
4. QIFNIISYII
5. RLFTRCAVI

3.50
1.99
3.37
2.46
1.97

###

- measured on: HLA-A*02:02
- method summary: IEDB peptide-MHC binding, purified MHC/competitive/radioactivity; bounds were set here for any values at or beyond the usual limits of such assays
- details: source organism: SARS-CoV1
metric name: IC50 (nM)
One number for each entry, in nM.

LMSFTILCLV    0.34

Provide reported IC50 for each item, in the same order as listed.
1. GLMWLSYFV
2. GTSAAAYFV
3. QLMCQPILLL
4. ILASFSAST
5. FVDEFYAYL
6. TLLLWISVKV

0.2
35
92
1.6
0.089
549

Provide reported IC50 for each item, in the same order as listed.
1. FVFNGTSWFI
2. TLLCVLAALV
3. FLAFLLFLV
4. YASALVLLI
5. WLMWFIISIV
6. YMLFTKFFYL

1
4.6
1.8
3.2
246
48

Provide reported IC50 for each item, in the same order as listed.
1. AIYVFCISL
2. VLWAHGFEL
3. FTYASALWEI
4. GALDVSASV

[143, 2.4, 1.6, 0.72]

###

Kindly supply the reported pIC50 values for the records listed here.
- measured on: HLA-A*02:03
- method summary: IEDB peptide-MHC binding, purified MHC/competitive/radioactivity; bounds were set here for any values at or beyond the usual limits of such assays
- details: source organism: SARS-CoV1
Give bare numbers, as −log10 of the molar value.

Worked cases, answers included:
IVAALVFLI    7.82
YIWKSYVHI    7.89
FLTSLLILV    7.92
GLMWLSYFV    9.09
FLWLLWPVTL    7.85
FMRFFTLGSI    9.12
NLAPHLLLIV    8.96
LLFNKVTLA    8.96
WLLWPVTLA    8.92
WLVIGVAFL    9.03

Provide reported pIC50 for each item, in the same order as listed.
1. QMLSVVGFLV
2. LMANLAPHLL

8.22
8.82

Provide reported pIC50 for each item, in the same order as listed.
1. LLLEWLAEV
2. FLITGVFDI

1: 9.20; 2: 9.12

###

- measured on: HLA-A*02:01
- method summary: IEDB peptide-MHC binding, cellular MHC/competitive/fluorescence; bounds were set here for any values at or beyond the usual limits of such assays
- details: source organism: Vaccinia virus WR
pIC50: −log10 of the molar value.
Mark yes (1) for reported pIC50 of 5 or greater; mark no (0) for anything smaller.

VTKSSSWKDV    no (0)

Given "VATDPDADAI" , state whether its pIC50 is at least 5.
no (0)

Repeat with "EIITGNKVKT"
no (0)

Repeat with "IASKINNNRI"
no (0)

Repeat with "MTSTRTIIL"
yes (1)

Repeat with "PIPYSRVNHA"
no (0)
